system: HCT-15 colon; test: NCI tumour cell line growth inhibition, 48 h
Each record here notes measured TGI.

# count of solved cases: 4
O=C1NC2=C(CCCC/C2=N\O)C12CCCCC2; > 100 µM
O=C(COc1ccc(Cl)cc1)N1N=C(c2ccc(Cl)cc2)CC1(O)c1ccccc1 (stereo not given); > 58.1 µM
O=C(O)CCCSC(=O)Nc1ccc(N=Nc2ccccc2)cc1; > 100 µM
Cc1cc2c(cc1Cl)SC(NNC(=O)c1ccco1)=NS2(=O)=O; > 10 µM

Attention now turns to another entry.
Task: Give its TGI value. Item: O=c1cc(-c2ccccc2)c2ccccc2[nH]1
Output: > 100 µM

* * *

test system: MALME-3M melanoma; assay: NCI tumour cell line growth inhibition, 48 h
Quick reference for TGI among some molecules

Worked examples, 2 molecules total:
O=c1c2ccccc2nc(-c2cc3c(cc2Cl)Sc2nccn2S3(=O)=O)n1-c1ccccc1; > 100 µM
O=C1NCC(CSc2nc3cc(C4CCCc5c4[nH]c4ccccc54)ccc3o2)N1 (stereo not drawn); > 100 µM

Task: Requested field: TGI. Item: OC(Cc1ccncc1)C(Cl)(Cl)Cl (stereo not drawn)
Output: > 100 µM

* * *

system: OVCAR-3 ovarian; test: NCI tumour cell line growth inhibition, 48 h
measured-attribute: TGI

Sample answers from the record:
O=c1[nH]nnc2c1ncn2C1OC(CO)C(O)C1O (centres undefined); > 100 µM
c1ccc(-c2nnc(-c3ccccn3)c3c2C[C@@H]2C[C@@H]4Cc5c(-c6ccccn6)nnc(-c6ccccn6)c5[C@@H]4[C@H]32)nc1; > 100 µM

Task: What TGI appears in the records for this compound with OVCAR-3 ovarian? O=C(O)CN(CC(=O)O)Cc1cc(C#Cc2ccc(C#Cc3ccccc3)cc2)cc(CN(CC(=O)O)CC(=O)O)n1
Output: > 39.9 µM

Task: State its TGI on OVCAR-3 ovarian: CC1(C)O[C@H]2[C@H](O)C[C@](O)(CO)C[C@H]2O1
Output: > 100 µM

Task: # query: TGI | item CCCCCCCCCCCc1nnc(N)o1 | system: OVCAR-3 ovarian
Output: > 100 µM

Task: Give recorded TGI with OVCAR-3 ovarian for the following compound: CC(=O)NC1C(OC[C@@H](CC(=O)N[C@@H](CC(=O)O)CC(=O)N[C@H](CC(=O)N[C@@H](CCCN)CC(=O)N[C@@H](CCCN)CC(=O)N[C@H](CC(N)=O)C(C)C)C(C)C)NC(=O)C[C@@H](N)C(C)C)OC(CO)C(O)C1O (some centres undefined)
Output: > 100 µM

Task: What value of TGI on OVCAR-3 ovarian does Cc1cc2c(cc1C)OC(=O)CC2 have?
Output: > 100 µM

Task: Give TGI (OVCAR-3 ovarian) of the following compound: COc1ccc(/C=C/C(=O)c2cc(OC)c(OC)c(OC)c2)cc1OCc1cn(Cc2ccc(F)cc2)nn1
Output: > 100 µM

Task: Give TGI (OVCAR-3 ovarian) of the following compound: COc1ccc(CCCCl)c(C2=NCCc3cc(OC)c(OC)cc32)c1
Output: > 100 µM

Task: What TGI appears in the records for this compound with OVCAR-3 ovarian? [N-]=[N+]=NC(CCl)c1cn([C@H]2C[C@H](O)[C@@H](CO)O2)c(=O)[nH]c1=O (some centres undefined)
Output: > 100 µM
